# Read-out: Low-density lipoprotein receptor (LDLR), LDLR (gene 3949)
# experimental-details: BSK_CASM3C_LDLR: BioMAP Diversity Plus: CASM3C Assay for Low-density lipoprotein receptor (LDLR) Biomarker Activity (AID 2283045);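 further: LDLR protein level on the cell surface quantified by ELISA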
# run-conditions: primary human coronary artery smooth muscle cells; actives raise or lower the signal
Calls of active or inactive are those of the source. How the source made its calls: active means hit-call score of the fitted dose curve at least 0.9, where 1 is the maximum; inactive means score below 0.9.
Answer with one of the outcomes given here: YES for active, NO for inactive

// known answers, use as guide
{"columns": ["molecule", "answer-label"],
 "data": [
  ["CCc1nc(N)nc(N)c1-c1ccc(Cl)cc1", "NO"],
  ["Cc1cn([C@H]2C=C[C@@H](CO)O2)c(=O)[nH]c1=O", "NO"],
  ["CN(C)C(=O)NC1(c2ccccc2)CCN(CCC[C@]2(c3ccc(Cl)c(Cl)c3)CCCN(C(=O)c3ccccc3)C2)CC1", "YES"]
]}

Then there is this molecule:
**Q:** For Cc1c(C)c2c(c(C)c1O)CCC(C)(COc1ccc(CC3SC(=O)NC3=O)cc1)O2 (centres undefined) , which call appears in the assay record?
**A:** NO
